# EXPERIMENTAL_DETAILS: Cell viability of B16 cells by neutral red dye uptake
# Format: cell-based
# CONDITIONS: mouse, b16 f1 cells, 50 μM
REPORTED_PROPERTY: viability at 72 h, 50 µM (%)
Please reply with the bare figure in % and do not write the unit itself.

Which viability at 72 h, 50 µM reading was recorded for the compound "Oc1ccc(/C=C/c2cc(O)cc(O)c2)cc1" ?
69.2

###

# EXPERIMENTAL_DETAILS: Cell viability of B16 cells by neutral red dye uptake
# Format: cell-based
# CONDITIONS: mouse, b16 f1 cells, 25 μM
REPORTED_PROPERTY: viability at 72 h, 25 µM (%)
Please reply with the bare figure in % and do not write the unit itself.

Which viability at 72 h, 25 µM reading was recorded for the compound "Oc1ccc(/C=C/c2cc(O)cc(O)c2)cc1" ?
86.8

###

# EXPERIMENTAL_DETAILS: Cell viability of B16 cells by neutral red dye uptake
# Assay type: cell-based
# CONDITIONS: mouse, b16 f1 cells, 10 μM
REPORTED_PROPERTY: viability at 72 h, 10 µM (%)
Please reply with the bare figure in % and do not write the unit itself.

Which viability at 72 h, 10 µM reading was recorded for the compound "Oc1ccc(/C=C/c2cc(O)cc(O)c2)cc1" ?
94.6
